Where do these numbers come from? They come from patent US20250339569A1.

ASSAY_TARGET: human carbonic anhydrase 9 (CAIX) (human, UniProt Q16790 38-459)
ASSAY_PROTOCOL: FACS competition on HT-29 cells against tracer 3BP-2776; pIC50 category A = pIC50 >8.0
Starred links: 1 amine or outer side, 2 acyl side, 3 side chain; linkers in the order of their positions; H or OH if unused. Positions of bridges follow the written chain, without caps; N, C: chain ends. Non-standard residues stand in square brackets, D forms with d. mXylylene = c1cc(C[*:1])cc(C[*:2])c1
MEASUREMENT_KIND: pIC50

Query block: Entry under review: Ac-VRCE[dP]DWLTWSC-NH2 (linker 3-12 via mXylylene; SMILES CC(=O)N[C@H](C(=O)N[C@@H](CCCNC(=N)N)C(=O)N[C@H]1CSCc2cccc(c2)CSC[C@@H](C(N)=O)NC(=O)[C@H](CO)NC(=O)[C@H](Cc2c[nH]c3ccccc23)NC(=O)[C@H]([C@@H](C)O)NC(=O)[C@H](CC(C)C)NC(=O)[C@H](Cc2c[nH]c3ccccc23)NC(=O)[C@H](CC(=O)O)NC(=O)[C@H]2CCCN2C(=O)[C@H](CCC(=O)O)NC1=O)C(C)C, also called Ac-Val-Arg-[Cys(3MeBn)-Glu-pro-Asp-Trp-Leu-Thr-Trp-Ser-Cys]-NH2) [3BP-3588] . Reported pIC50?
Result block: > 8 pic50
